- System Name: T1, lambda exonuclease (bacteriophage lambda, UniProt P03697 1-226)
- T1 sequence: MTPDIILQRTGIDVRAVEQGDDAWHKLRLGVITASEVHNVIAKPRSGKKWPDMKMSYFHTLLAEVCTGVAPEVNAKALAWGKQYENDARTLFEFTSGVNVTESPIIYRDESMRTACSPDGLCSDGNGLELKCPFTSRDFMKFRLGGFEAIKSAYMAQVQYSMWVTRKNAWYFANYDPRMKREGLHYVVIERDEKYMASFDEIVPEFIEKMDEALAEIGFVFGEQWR
- Method: fluorescence anisotropy

{"Binder": "F25 (dsDNA) DNA 1: TAGAGCTTAATTGCTGAATCTGGTG DNA 2: CACCAGATTCAGCAATTAAGCTCTA", "Kd, nM": 161}

Data provenance is paper PMC2688778.
